B1: COUP transcription factor 1, residues 83 to 159; numbered along this chain, P10589 (parent)
chain: HIECVVCGDKSSGKHYGQFTCEGCKSFFKRSVRRNLTYTCRANRNCPIDQHHRNQCQYCRLKKCLKVGMRREAVQRG

variants of: B1; assay: abundance fitness (aPCA) (normalised: wild type 0, dead -1); higher = more abundant; growth selection in yeast, the domain comes from the species named; details: Homo sapiens
Property: abundance fitness; scope: individual variants

{"columns": ["mutationKey", "abundance fitness"],
 "data": [
  ["H51K", 0.059],
  ["G68T", -0.677],
  ["R44M", 0.057],
  ["R41H", 0.051],
  ["R53P", 0.111],
  ["N54W", -0.194],
  ["T37I", -0.038],
  ["C56P", -1],
  ["R33L", 0.109],
  ["P47H", -0.296],
  ["M69P", -0.661],
  ["N35C", 0.538],
  ["S31V", -0.155],
  ["G17M", -0.703],
  ["R71I", 0.084],
  ["R76H", 0.094],
  ["G68I", -0.494],
  ["G68E", -0.524],
  ["R44K", -0.071],
  ["Q75W", -0.119],
  ["N43Q", 0.027],
  ["N43K", 0.018],
  ["G77M", -0.017],
  ["R53V", -0.069],
  ["D49S", -0.044],
  ["G68Y", -0.436],
  ["G77Y", -0.257],
  ["C59V", -0.729],
  ["F27E", -0.519],
  ["R70N", 0.071],
  ["V32W", -0.784],
  ["R53D", 0.055],
  ["F28T", -1.2],
  ["K63S", -0.464],
  ["R70A", 0.023],
  ["G77N", -0.023],
  ["Y16I", -0.297],
  ["K29C", -0.705],
  ["G77P", -0.013],
  ["N43M", -0.222],
  ["R70F", 0.002],
  ["V32A", -0.151],
  ["Q50C", -0.078],
  ["F19S", 0.032],
  ["N45Y", -0.595],
  ["Y16Q", 0.096],
  ["C46R", -0.602],
  ["T37V", 0.044],
  ["A73V", -0.052],
  ["H52M", -0.019],
  ["V74G", -0.102],
  ["C46F", -0.501],
  ["L61K", -0.78],
  ["C46D", -0.572],
  ["L61N", -0.702],
  ["C46A", -0.519],
  ["C40Q", -0.848],
  ["N35H", -0.256],
  ["R34Q", 0.018],
  ["R53A", 0.022],
  ["Q50I", 0.117],
  ["R44T", 0.054],
  ["R34G", 0.131],
  ["M69H", -1.08],
  ["K25A", 0.09],
  ["K66M", 0.055],
  ["G68A", -0.729],
  ["R70G", -0.152],
  ["L61W", -0.05],
  ["G23Q", 0.031],
  ["L36M", -0.085],
  ["A42E", 0.084],
  ["Y16P", -0.355],
  ["G77V", -0.041],
  ["R44N", 0.11],
  ["F28G", -1.05],
  ["R71K", 0.104],
  ["K25W", 0.003],
  ["Q50Y", -0.066],
  ["N45R", 0.067],
  ["G23T", -0.009],
  ["N43F", -0.22],
  ["F19C", -0.216],
  ["R71D", 0.017],
  ["Q50M", -0.088],
  ["K29A", -0.079],
  ["R53I", -0.169],
  ["M69E", -0.723],
  ["Q50N", 0.012],
  ["F28W", -0.069],
  ["R71M", 0.151]
]}
